The measurements presented in this section are drawn from patent US7994185B2.

Parameter pIC50: see the listing below.
System: BRAFV600E full-length (amino acids 2-766) (Homo sapiens, UniProt P15056, V600E)
Construct: His6-tagged BRAFV600E full-length (amino acids 2-766); His6; made in house; host or cells: baculovirus expression system (insect cells)
Sequence (P15056 2-766 V600E): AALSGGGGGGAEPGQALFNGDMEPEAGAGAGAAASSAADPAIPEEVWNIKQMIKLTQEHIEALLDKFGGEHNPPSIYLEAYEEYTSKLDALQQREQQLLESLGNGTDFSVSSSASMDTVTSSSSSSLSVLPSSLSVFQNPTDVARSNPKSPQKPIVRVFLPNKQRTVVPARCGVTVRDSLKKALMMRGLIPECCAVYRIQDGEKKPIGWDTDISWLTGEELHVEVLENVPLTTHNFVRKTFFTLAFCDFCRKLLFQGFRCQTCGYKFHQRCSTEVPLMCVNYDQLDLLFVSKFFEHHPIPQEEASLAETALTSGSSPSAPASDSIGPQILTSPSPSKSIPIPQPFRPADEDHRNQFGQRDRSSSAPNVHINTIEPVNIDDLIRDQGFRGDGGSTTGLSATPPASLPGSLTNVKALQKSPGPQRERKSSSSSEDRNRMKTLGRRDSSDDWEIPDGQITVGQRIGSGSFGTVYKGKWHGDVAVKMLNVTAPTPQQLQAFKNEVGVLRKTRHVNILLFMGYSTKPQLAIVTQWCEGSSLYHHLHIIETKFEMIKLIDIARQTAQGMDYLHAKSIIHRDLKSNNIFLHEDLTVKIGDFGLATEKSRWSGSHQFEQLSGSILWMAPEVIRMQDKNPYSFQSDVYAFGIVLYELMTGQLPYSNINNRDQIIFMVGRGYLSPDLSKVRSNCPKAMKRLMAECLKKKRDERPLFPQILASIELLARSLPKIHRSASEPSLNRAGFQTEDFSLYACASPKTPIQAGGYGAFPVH
Experimental Protocol: B-Raf Accelerated MEK ATPase assay (BRAMA)
Type: biochemical
Details: B-Raf pIC50, Table 1b; later runs, average pIC50 for the one or more runs, categorized
pIC50: −log10 of the molar value.

Enquiry: Name the recorded pIC50 of the item CC(C)(C)c1nc(-c2cccc(NS(=O)(=O)c3cc(F)ccc3F)c2F)c(-c2ccnc(NCCNC(=O)CO)n2)s1 in your answer.
Return: ≥ 8.50

Enquiry: Give a short answer stating reported pIC50 for CC(C)c1nc(-c2ccc(F)c(NS(=O)(=O)c3c(F)cccc3F)c2)c(-c2ccnc(NCCF)n2)s1 .
Return: 6.00 to 7.50

Enquiry: Specify pIC50 for CC(C)c1nc(-c2cccc(NS(=O)(=O)c3cc(F)ccc3F)c2F)c(-c2ccnc(NCCCN3CCCC3=O)n2)s1 and stop.
Return: ≥ 8.50

----------
System: BRAFV600E full-length (amino acids 2-766) (Homo sapiens, UniProt P15056, V600E)
Construct: His6-tagged BRAFV600E full-length (amino acids 2-766); His6; made in house; host or cells: baculovirus expression system (insect cells)
Experimental Protocol: B-Raf Accelerated MEK ATPase assay (BRAMA)
Format: biochemical
Details: B-Raf pIC50, Table 1b; later runs, average pIC50 for the one or more runs, categorized
pIC50: −log10 of the molar value. Structures can show the parent of a compound that is named as a salt.
Property Label: pIC50

Molecule: CC(C)c1nc(-c2cccc(NS(=O)(=O)N3CCOCC3)c2)c(-c2ccnc(NCCS(C)(=O)=O)n2)s1 [Example 37, trifluoroacetic acid salt]
System: BRAFV600E full-length (amino acids 2-766) (Homo sapiens, UniProt P15056, V600E)
Observed: 6.00 to 7.50

Molecule: CC(C)(C)c1nc(-c2c(F)ccc(NS(=O)(=O)c3cccc(F)c3)c2F)c(-c2ccnc(N)n2)s1 [Example 157]
System: BRAFV600E full-length (amino acids 2-766) (Homo sapiens, UniProt P15056, V600E)
Observed: ≥ 8.50

Molecule: CCNc1nccc(-c2sc(C(C)C)nc2-c2ccc(F)c(NS(=O)(=O)c3c(F)cccc3F)c2)n1 [Example 9]
System: BRAFV600E full-length (amino acids 2-766) (Homo sapiens, UniProt P15056, V600E)
Observed: 6.00 to 7.50

From here, focus on the item given below.
Enquiry: Return pIC50 for the following molecule: CC(C)(C)c1nc(-c2cccc(NS(=O)(=O)c3cc(F)ccc3F)c2F)c(-c2ccnc(NCCF)n2)s1 [Example 179]
Return: ≥ 8.50

----------
System: BRAFV600E full-length (amino acids 2-766) (Homo sapiens, UniProt P15056, V600E)
Construct: His6-tagged BRAFV600E full-length (amino acids 2-766); His6; made in house; host or cells: baculovirus expression system (insect cells)
Experimental Protocol: B-Raf Accelerated MEK ATPase assay (BRAMA)
Assay type: biochemical
Details: B-Raf Activity, Table 1a; highest pIC50 for the one or more runs, categorized
pIC50: −log10 of the molar value.
Property Label: pIC50

Sample records with pIC50:
Compound String: CC(C)c1nc(-c2ccc(F)c(NS(=O)(=O)C3CC3)c2)c(-c2ccnc(NCCS(C)(=O)=O)n2)s1
pIC50: 6.00 to 7.00

Compound String: CC(C)c1nc(-c2ccc(F)c(NS(=O)(=O)c3c(F)cccc3F)c2)c(-c2ccnc(NCCO)n2)s1
pIC50: 6.00 to 7.00

Compound String: CC(C)CNc1nccc(-c2sc(N3CCOCC3)nc2-c2cccc(NS(=O)(=O)c3c(F)cccc3F)c2F)n1
pIC50: > 7.00

Compound String: COc1ccc(F)cc1S(=O)(=O)Nc1cccc(-c2nc(C(C)C)sc2-c2ccnc(NCC(C)C)n2)c1
pIC50: 6.00 to 7.00

Compound String: CC(C)c1nc(-c2ccc(F)c(NS(=O)(=O)c3cc(F)ccc3F)c2)c(-c2ccnc(NC3CCN(S(C)(=O)=O)CC3)n2)s1
pIC50: > 7.00

Compound String: Nc1nccc(-c2sc(C3CCCCC3)nc2-c2cccc(NS(=O)(=O)c3cc(F)ccc3F)c2F)n1
pIC50: > 7.00

Enquiry: Identify measured pIC50 corresponding to CC(C)CNc1nccc(-c2sc(N(C)C)nc2-c2cccc(NS(=O)(=O)c3c(F)cccc3F)c2)n1
Return: > 7.00
